Assay: chemical genetic growth profiling, strain panel (AID 1159580);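 also: tested at 20 µM; growth read once vehicle control cultures reached saturation at 30 °C; 1 = growth at the plate median or of vehicle wells; lower values mean less growth of the strain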
Details: S. cerevisiae deletion strains, growth OD, locus YLR418C, strain cdc73, active compounds read low
About 2,000 (36%) of roughly 5,500 compounds were called active. Roughly 18% stayed inconclusive and do not appear here. The list shows a part of the results.
Measured endpoint: normalized growth

INSERT INTO assay_data (compound, result_value) VALUES
  ('CC(C)N(C(=O)CCl)c1ccccc1', 0.798),
  ('COc1ccc(-c2coc3c(OC)c(O)ccc3c2=O)cc1', 0.808),
  ('N#Cc1c(Cl)c(Cl)c(Cl)c(C#N)c1Cl', 0.995),
  ('CC(C)[N+](C)(CCOC(=O)C1c2ccccc2Oc2ccccc21)C(C)C', 1.02),
  ('CC(=O)O[C@@](C)(CCC=C(C)C)C1CC=C(C)CC1 (some centres not stated)', 0.988),
  ('CC(C)=CCc1c(O)cc2oc(C)cc(=O)c2c1O', 0.898),
  ('CC(C)(C)CC(C)(C)c1ccc(OCCOCC[N+](C)(C)Cc2ccccc2)cc1', 0.871),
  ('NC(=O)N1c2ccccc2CC(=O)c2ccccc21', 1.01),
  ('COc1ccc(-c2coc3c(OC)c(OC)ccc3c2=O)cc1', 0.879),
  ('C[N+](C)(C)CC(=O)[O-]', 0.99),
  ('O=C(O)c1cc(=O)c2cc(Cl)ccc2[nH]1', 0.984),
  ('NC(N)=Nc1nc(CSCCC(N)=NS(N)(=O)=O)cs1', 0.999);
